- Test system: 361931-004-R-J1-PDC multicell spheroid viability;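 note: spheroids exposed to agents for seven days before readout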
- run_description: Anticancer human tumor 361931-004-R-J1-PDC patient-derived colon adenocarcinoma cell line growth inhibition [PI3K]
- condition_description: second compound 0.0316 µM; first compound 0.0316 µM; stronger effect = lower value
- Excerpt: Combinatorial screen of targeted agents with the PI3K inhibitors inavolisib, alpelisib, duvelisib, and copanlisib in multi-cell type tumor spheroids A high-throughput screen of multi-cell type tumor spheroids was designed to identify active combinations of targeted small molecules and PI3K pathway inhibitors. […] Compounds. […] If the clinical Cmax for an agent had not been determined, the highest concentration tested was 10 microM. […]
Please go through the items and note down their viability, T/C.
Give bare numbers, in %.

CC1(C)CCC(Nc2ncc(C(F)(F)F)c(-c3c[nH]c4c(P(C)(C)=O)c(C#N)ccc34)n2)CN1 (stereo unspecified) + Cc1nc(NC(=O)N2CCCC2C(N)=O)sc1-c1ccnc(C(C)(C)C(F)(F)F)c1 = 97.1

Would you mind listing viability, T/C for each of the following compounds?
1. Cn1ncc(Cl)c1-c1cc(C(=O)NC(CN)Cc2cccc(F)c2)sc1Cl (stereo unspecified) + CC(Nc1ccc2c(c1)OCCn1cc(N3C(=O)OCC3C(F)F)nc1-2)C(N)=O
2. CNC(=O)c1ccc(N2C(=S)N(c3ccc(C#N)c(C(F)(F)F)c3)C(=O)C2(C)C)cc1F + COc1c(OCCCN2CCOCC2)ccc2c3n(c(=NC(=O)c4cnc(N)nc4)nc12)CCN3
3. Cn1ncnc1[C@H]1c2n[nH]c(=O)c3cc(F)cc(c23)N[C@@H]1c1ccc(F)cc1 + Cc1nc(NC(=O)N2CCCC2C(N)=O)sc1-c1ccnc(C(C)(C)C(F)(F)F)c1
4. CCN1CCN(Cc2ccc(Nc3ncc(F)c(-c4cc(F)c5nc(C)n(C(C)C)c5c4)n3)nc2)CC1 + COc1c(OCCCN2CCOCC2)ccc2c3n(c(=NC(=O)c4cnc(N)nc4)nc12)CCN3

1: 103; 2: 83.6; 3: 79.8; 4: 80.7
